Listed below are compounds with IC50 for Tyrosine-protein kinase JAK3 (Homo sapiens), each taken from published literature.

CN1CCN(c2ccc(Nc3ncc4ccn(-c5cccc(NS(=O)(=O)C(C)(C)C)c5)c4n3)cc2F)CC1 ... 125 nM
CCOC(=O)Cn1cc(Nc2ncc3ccn(CC(CC)C(C)C)c3n2)cn1 (centres unmarked) ... < 100 nM

Attention now turns to another entry.
Look up IC50: CCC(=O)c1cnc(Nc2ccc(CN3CC[C@@H](F)C3)cn2)cc1Nc1cccc(-c2ncn(C)n2)c1OC
≥ 500 nM

----------
pIC50: −log10 of the molar value.
Literature-derived pIC50 for Tyrosine-protein kinase JAK3 (Homo sapiens, UniProt P52333) follows.

# annotated cases, reported pIC50 shown
CN(c1ncnc2[nH]ccc12)N1CCCC(N2CCCC2=O)C1 (centres unmarked) ... 6.00 to 7.00
NC(=O)c1nc(-c2c(Cl)cccc2Cl)oc1Nc1ccc(C(=O)N2CCS(=O)(=O)CC2)c(F)c1 ... 6.11
Cc1ccnc(NC(=O)c2ccc(-c3nn([C@H]4CC[C@H](NC(=O)/C=C/CN(C)C5CC5)CC4)c4ncnc(N)c34)cc2)c1 ... < 5.00
COc1ccc(-c2cc3nccn3c(-c3cnn(C4(CC#N)CN(S(=O)(=O)C(F)(F)F)C4)c3)n2)cc1 ... 6.00 to 7.00
CN(c1ccc(O)cc1CNc1nc(-c2cc(F)c(O)cc2CC(F)(F)F)nc2[nH]nc(-c3nnc(C4CCN(C(N)=O)CC4)[nH]3)c12)S(C)(=O)=O ... 7.32
Cc1cnc2nc1Nc1cccc(c1)COCCCC(=O)N1CCN(CC1)c1cnc(F)c(c1)N2 ... 6.00 to 7.00

Look at this compound and give its reported pIC50. CC(C)C[C@H](C)n1cc(-c2nc(-c3cnn(C[C@@H](O)CO)c3)cn3nccc23)cn1
5.00 to 6.00

What do we get for COCCC(C)n1c(-c2c[nH]c3ccccc23)nc2cnc(-n3cnc4ccc(F)cc43)nc21 (centres unmarked) ?
6.00 to 7.00

// query: Cn1cc(-c2ccc(-c3cc4nccn4c(-c4cnn(C(CC#N)C5CC5)c4)n3)cc2)cn1 (centres unmarked)
6.00 to 7.00

What would you report for Fc1cc(F)cc(-c2ccnc3[nH]cc(Sc4ccccn4)c23)c1 ?
≥ 5.00

Again, but for C[C@H](Nc1nc(Nc2ccc[nH]c2=O)ncc1C(N)=O)c1ccc(F)cn1
> 7.00

Also check Cn1cc(-c2cc3nccn3c(-c3cnn(C4(CC#N)CN(CC(F)(F)C(F)F)C4)c3)n2)cn1
< 6.00

Now consider C#Cc1ccc(C(=O)N2CC3(CC(N(C)c4ncnc5[nH]ccc45)C3)C2)c(Cl)c1 and answer again.
5.00 to 6.00

What would you report for CCCC(=O)N1CCC2(CCC(N(C)c3ncnc4[nH]ccc34)CC2)CC1 ?
5.00 to 6.00

Param item: N#CCC(C1CC1)n1cc(-c2nc(-c3cnn(Cc4cccnc4)c3)cc3nccn23)cn1 (centres unmarked)
6.00 to 7.00

# iterate: Fc1ccc2ncn(-c3ncc4nc(Cc5ccccc5)n(C5CCOCC5)c4n3)c2c1
6.00 to 7.00

Next compound up: C=CC(=O)N1CC[C@@H](Nc2nc(Nc3cnn(C4CCCC4)c3)nc3ccsc23)C1
7.00 to 8.00

What do we get for Cc1cc2ccc1C(=O)NCCCCCNc1nc(ncc1C)Nc1cc-2cnc1F ?
5.00 to 6.00

Try this compound next: CCC(Cn1ccc2cnc(Nc3cnn(CC(=O)OC[C@H](C)O)c3)nc21)C(C)C (some centres unmarked)
> 7.00

Can you handle O=c1[nH]c2cnc(-c3cnn4cc(F)ccc34)nc2n1C1CCOCC1 next?
> 7.00

Same question for CCC(CC)n1cc(-c2nc(-c3cnn(C[C@@H](O)CN4CC(OC)C4)c3)cn3nccc23)cn1 please.
5.00 to 6.00
